Bcl-2-like protein 1 (Homo sapiens, UniProt Q07817) measurements of Ki, listed per entry.
Sequence (Q07817 whole entry): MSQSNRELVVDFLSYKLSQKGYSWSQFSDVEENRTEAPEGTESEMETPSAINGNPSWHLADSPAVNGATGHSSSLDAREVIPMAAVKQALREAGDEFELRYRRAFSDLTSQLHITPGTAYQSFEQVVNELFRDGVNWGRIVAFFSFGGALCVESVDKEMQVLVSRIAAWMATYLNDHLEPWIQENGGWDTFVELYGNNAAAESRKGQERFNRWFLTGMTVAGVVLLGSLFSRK

// below: answered compounds
O=C(NCCN1CCCCC1)[C@H]1[C@H](CO)[C@H]2Cn3c(cccc3=O)[C@@H]1N2c1nc(-c2ccc(Cl)cc2)c(-c2ccccc2)s1 : 11 µM
O=C(N[C@H]1CCN(Cc2ccccc2)C1)[C@H]1[C@H](CO)[C@H]2Cn3c(cccc3=O)[C@H]2N1CC1CCCCC1 : > 100 µM
O=C([C@@H]1[C@@H](CO)[C@@H]2Cn3c(cccc3=O)[C@@H]2N1Cc1ccc(Cl)c(Cl)c1)N1CCC(c2ccc(F)cc2)CC1 : > 100 µM
O=C(NCc1ccc(Oc2ccccc2)cc1)[C@H]1[C@H](CO)[C@H]2Cn3c(cccc3=O)[C@H]2N1CC1CCCCC1 : > 100 µM
O=C(NCCCN1CCCC1)[C@@H]1[C@@H](CO)[C@@H]2Cn3c(cccc3=O)[C@H]1N2c1nc(-c2ccc(Cl)cc2)c(-c2ccccc2)s1 : 5.7 µM

API: value(readout= Ki, system= Bcl-2-like protein 1 (Homo sapiens, UniProt Q07817), query= O=C([C@@H]1[C@@H](CO)[C@@H]2Cn3c(cccc3=O)[C@@H]2N1Cc1ccc(Oc2ccccc2)cc1)N1CCC(c2ccc(F)cc2)CC1 )
> 100 µM
